Parameter: protein stability index. Scope: all listed entries.
B1: ANKRD40 (parent)
chain: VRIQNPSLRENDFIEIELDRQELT

# Variants of: B1
# Run Description: protein stability index of a GFP-peptide fusion (GPS, HEK-293T) (PSI 1-6); higher = more stable;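 further: lentivirally expressed fusions sorted by FACS into six bins by GFP to DsRed ratio, PSI derived from sequencing read proportions per bin multiplied by bin number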
# Condition: c terminus: a fixed tail appended
Readout Kind: protein stability index

| Change | Measurement |
| --- | --- |
| Q21L | 1.8 |
| D19E | 2.8 |
| P6F | 1.66 |
| L18Q | 4.7 |
| Q21W | 1.73 |
| S7T | 3.04 |
| L8I | 3.35 |
| I16R | 4.75 |
| I16D | 5 |
| S7M | 2.01 |
| E17L | 1.98 |
